Assay read-out IC50 on Cytochrome P450 3A4 (Homo sapiens); records merged from the literature.
Sequence (P08684 whole entry): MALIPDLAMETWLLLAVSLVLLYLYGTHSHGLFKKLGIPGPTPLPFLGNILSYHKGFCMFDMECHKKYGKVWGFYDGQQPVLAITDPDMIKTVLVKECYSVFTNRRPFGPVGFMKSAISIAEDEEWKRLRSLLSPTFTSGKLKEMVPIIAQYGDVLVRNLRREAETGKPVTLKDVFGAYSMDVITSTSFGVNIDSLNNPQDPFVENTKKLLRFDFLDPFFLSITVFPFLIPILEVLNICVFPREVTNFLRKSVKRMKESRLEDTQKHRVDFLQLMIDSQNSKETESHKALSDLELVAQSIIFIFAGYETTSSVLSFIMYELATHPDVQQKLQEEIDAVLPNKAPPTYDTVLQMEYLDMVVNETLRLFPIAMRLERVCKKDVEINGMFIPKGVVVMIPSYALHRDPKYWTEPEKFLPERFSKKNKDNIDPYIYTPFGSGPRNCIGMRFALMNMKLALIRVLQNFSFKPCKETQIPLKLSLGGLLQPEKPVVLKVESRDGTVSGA

# count of solved cases: 5
CC#C[C@@H](CC(=O)O)c1ccc(OCc2ccc3nc(-c4c(C)cccc4C)nn3c2)cc1 ... > 60 µM
CCCNC1CN(c2ccnc(N)n2)C1.O.O=C(O)/C=C/C(=O)O ... > 25 µM
Cc1csc(N(C)C(=O)CSc2ccc(-c3ccccc3)nn2)n1 ... > 30 µM
CCN(C(C)=O)c1ccc(OC)c2nc(NC(=O)c3ccnn3C)sc12 ... > 50 µM
CCC(=O)CCCCC[C@H](NC(=O)C1CN(C)C1)c1ncc(-c2cc3ccccc3nc2OC)o1 ... > 20 µM

Looking for the measured IC50 of CCC1(CC)C[C@@H](NC(=O)Nc2cccc3cnc(C)cc23)c2cccc(F)c2O1 , can you help?
> 20 µM

Would you mind doing CN(C)C(=O)c1c(N)ccc(-c2cnc3c(c2Cl)C2(CCC2)CN3)c1F as well?
> 10 µM

Continue with NC(=O)c1nc(-c2ccccc2)oc1N
> 30 µM

Also COC(=O)C1CCN(C(=O)c2ccc3nc(N)sc3c2)CC1 , if possible.
10 to 25 µM

What about this compound? COC(=O)c1cncc(-c2ccc3c(c2)CCc2nnc(C)n2-3)c1
> 50 µM

Moving on to the next compound: O=C(O)Cn1c2c(c3cc(F)ccc31)CN(C(=O)Cc1c[nH]c3ccccc13)CC2
> 50 µM

----------
Compiled notes: published IC50 values involving Cytochrome P450 3A4 (Homo sapiens, UniProt P08684).
So basically, if IC50 comes in under 4 µM it's yes (1), and if it's 4 µM or more it's no (0).

Below are worked cases with known answers.
COc1ccc(CC[C@@H](OC(=O)[C@@H]2CCCCN2C(=O)[C@@H]2CCC[C@@H]3CCCC[C@H]32)c2cccc(OCC(=O)O)c2)cc1OC ... no (0)
CNc1noc2c(-c3ccc4c(OC(C)C)nncc4c3)c(C)ccc12 ... no (0)
O=C(O)c1ccc2cc(N3CCC4(C=C(c5c(-c6c(Cl)cccc6Cl)noc5C5CC5)C4)CC3)ccc2n1 ... yes (1)
COc1nc(NCCCN2CCOCC2)nc(OC)c1NC(=O)c1ccc(Oc2cc3c(cc2C)CCC3(C)C)o1 ... no (0)
COC(=O)N[C@H](C(=O)N1C[C@@H](C)C[C@H]1c1ncc(-c2ccc(-c3ccc(-c4cc5[nH]c([C@@H]6C[C@H](C)CN6C(=O)[C@@H](NC(=O)OC)C(C)C)nc5s4)s3)cc2)[nH]1)C(C)C ... no (0)
CC(=O)N[C@@H]1C[C@H](NC(C)(C)C)CC[C@@H]1N1CC[C@H](Nc2ncnc3ccc(C(F)(F)F)cc23)C1=O ... no (0)
COc1ccc(C2=NC(c3ccc(Cl)cc3F)C(C(=O)Nc3ccc4[nH]ncc4c3)=C(C)N2)cc1 (configuration not stated) ... yes (1)
O=C(Nc1nc(C(F)(F)F)co1)C1c2ccccc2Oc2ccccc21 ... no (0)
C1=C(CS/C(=N\C2CCCCC2)NC2CCCCC2)N2CCN=C2S1 ... yes (1)
CCCCOc1cncc(-c2nnc3c(C)nc4ccc(CN5CCOCC5)cc4n23)c1 ... no (0)

Lab log: compare recorded IC50 with 4 µM; is it strictly lower for COc1cc2c(cc1OC)[C@@H](C)C(=O)N(C)C=C2 ?
no (0)

# repeat for Cc1cccc(-c2noc([C@H]3CNCC[C@]3(O)c3ccc(F)c(F)c3)c2Br)c1C
no (0)
